- procedureText: Visual assessment of thioglycolipid aggregation and hydrogel formation
- Format: physicochemical
- experimentalSetup: thioglycolipid concentration 0.25 wt %, room temperature
valueKind: Visual assessment of aggregation and gelation

CCCCCCCCCCS[C@@H]1O[C@H](CO)[C@@H](O[C@@H]2O[C@H](CO)[C@H](O)[C@H](O)[C@H]2O)[C@H](O)[C@H]1O [LacSC10]	G + C
CCCCCCCCCCCCS[C@@H]1O[C@H](CO)[C@@H](O[C@@H]2O[C@H](CO)[C@@H](O)[C@H](O)[C@H]2O)[C@H](O)[C@H]1O [CelSC12]	G or F
CCCCCCCCCCCCS[C@@H]1O[C@H](CO)[C@@H](O[C@@H]2O[C@H](CO)[C@H](O)[C@H](O)[C@H]2O)[C@H](O)[C@H]1O [LacSC12]	O
CCCCCCCCCCS[C@@H]1O[C@H](CO)[C@@H](O[C@@H]2O[C@H](CO)[C@@H](O)[C@H](O)[C@H]2O)[C@H](O)[C@H]1O [CelSC10]	G or F
CCCCCCCCS[C@@H]1O[C@H](CO)[C@@H](O[C@@H]2O[C@H](CO)[C@@H](O)[C@H](O)[C@H]2O)[C@H](O)[C@H]1O [CelSC8]	C

In plain terms, CCCCCCCCS[C@@H]1O[C@H](CO)[C@@H](O[C@@H]2O[C@H](CO)[C@H](O)[C@H](O)[C@H]2O)[C@H](O)[C@H]1O [LacSC8] has a documented Visual assessment of aggregation and gelation of C

These entries and their values trace back to patent US20240181136A1.
